Experiment: Quantitative High-Throughput drug screen in 47 multiple myeloma cell lines against the NCATS MIPE library collection: U266_ATCC cell viability assay (AID 1919864); note: nearly all actives have a fitted effect of over 35% in size
Details: U266 myeloma viability, CellTiter-Glo ATP luminescence, 48 h; series mostly up to 45.8 µM
Records with an inconclusive call do not appear. Active and inactive are the calls of the source. Calls come from the whole dose curve; as a rule, active = well fitted cell-killing curve with a large enough effect; inconclusive = small, poorly fitted or top-dose-only effect, or effect the other way; inactive = no such curve, though single readings can be large or run the other way.
Outcomes: 1 (active), 0 (inactive)

- MOLECULE: "CC(C)n1cnc2c(NCCc3ccc(O)cc3)nc(-c3csc4ccccc34)nc21"
  CLASS NAME: 1
- MOLECULE: "O=C(O)c1ccc(Nc2ncc3c(n2)-c2ccc(Cl)cc2C(c2c(F)cccc2F)=NC3)cc1"
  CLASS NAME: 1
- MOLECULE: "COc1cc(OC)c(C=CS(=O)(=O)Cc2ccc(OC)c(NCC(=O)O)c2)c(OC)c1"
  CLASS NAME: 1
- MOLECULE: "C[C@](Cc1c[nH]c2ccccc12)(NC(=O)OC1C2CC3CC(C2)CC1C3)C(=O)NC[C@H](NC(=O)CCC(=O)O)c1ccccc1 (some centres not stated)"
  CLASS NAME: 0
- MOLECULE: "C[C@@H]1C(=O)O[C@H]2CC34[C@H]5C[C@@H](C(C)(C)C)C36[C@H](OC(=O)[C@@H]6O)O[C@@]4(C(=O)O5)[C@]21O (some centres not stated)"
  CLASS NAME: 0
- MOLECULE: "Cn1cnc(=N)c2[nH]cnc21"
  CLASS NAME: 1
- MOLECULE: "O=C1c2c(O)cccc2[C@@H]([C@@H]2O[C@H](CO)[C@@H](O)[C@H](O)[C@H]2O)c2cc(CO)cc(O)c21"
  CLASS NAME: 0
- MOLECULE: "O=c1[nH]c(=O)n([C@H]2C[C@@H](O)[C@@H](CO)O2)cc1C=CBr"
  CLASS NAME: 0
- MOLECULE: "Nc1ccn(C2CO[C@H](CO)O2)c(=O)n1 (some centres not stated)"
  CLASS NAME: 0
- MOLECULE: "CCC(C=C[C@@H]1OC(=O)C=C[C@H]1C)=C[C@H](C)CC=CC(C)=C[C@@H](C)C(=O)[C@@H](C)[C@H](O)[C@@H](C)CC(C)=CC(=O)O"
  CLASS NAME: 1
- MOLECULE: "C[C@]12C=CC(=O)N[C@@H]1CC[C@H]1[C@H]3CC[C@@H](C(=O)Nc4cc(C(F)(F)F)ccc4C(F)(F)F)[C@@]3(C)CC[C@@H]12"
  CLASS NAME: 0
- MOLECULE: "CCNC(=O)c1cc2c(-c3cc(OCCN4CCCC4)c(Cl)cc3Cl)nc(N)nc2s1"
  CLASS NAME: 1
- MOLECULE: "CC(=O)O[C@H]1C[C@@H]2CC[C@H]3[C@H]4C[C@H]([N+]5(C)CCCCC5)[C@@H](OC(C)=O)[C@@]4(C)CC[C@@H]3[C@@]2(C)C[C@H]1N1CCCCC1"
  CLASS NAME: 0
- MOLECULE: "C[C@H](NC(=O)[C@@H](O)c1cc(F)cc(F)c1)C(=O)N[C@@H]1C(=O)N(C)c2ccccc2-c2ccccc21"
  CLASS NAME: 0
- MOLECULE: "CCOC(=O)[C@H](CCc1ccccc1)N[C@@H](C)C(=O)N1[C@@H](C(=O)O)C[C@H]2CCC[C@@H]21"
  CLASS NAME: 1
- MOLECULE: "c1coc(CNc2ncnc3nc[nH]c23)c1"
  CLASS NAME: 0
- MOLECULE: "Cc1ccc(O)c(C(CCN(C(C)C)C(C)C)c2ccccc2)c1 (configuration not stated)"
  CLASS NAME: 0

Provenance of the data: PubChem BioAssay (NCATS)
